# METHOD_DESCRIPTION: Pharmacokinetic evaluation in mice (iv, LC/MS/MS plasma)
# Assay type: in vivo
# SETTINGS: mouse, plasma; C57 mice, female, intravenous administration, dose 1 mg/kg (table); read-out: Plasma Concentration C5 min
Listed next: entries and their corresponding concentration at 5 min.
MEASURE: concentration at 5 min (ng/mL)

>>> value("CN(CCO)CC[C@H](CSc1ccccc1)Nc1ccc(S(=O)(=O)NC(=O)c2ccc(N3CCC([C@@H](O)c4ccccc4-c4ccc(Cl)cc4)CC3)cc2)cc1S(=O)(=O)C(F)(F)F [AZD4320, reference compound]")
436
>>> value("CN(CCO)CC[C@H](CSc1ccccc1)Nc1ccc(S(=O)(=O)NC(=O)c2ccc(N3CCC([C@@H](O)c4ccccc4-c4ccc(C(F)(F)F)cc4)CC3)cc2)cc1S(=O)(=O)C(F)(F)F [Example 2-10]")
608

Data credit: patent US20230250077A1
